system: hGYS1 enzyme / glycogen synthesis in HeLa cells; test: GYS1 cell based assay (glycogen synthesis, Glucose-glo); set-up: species or system human; conditions: 24 h incubation, 20 mM glucose, geometric mean of at least 2 runs
Measure Name: pIC50
Worth noting: pIC50 values are minus log10 of concentrations stated in mol/L.

Sample answers from the record:
CC(C)c1ccc(C(NC(=O)[C@@H]2C[C@@H](F)CN2C(=O)Cc2cnn[nH]2)c2ccc3cn[nH]c3c2)nc1F (single isomer, unassigned) [Compound 632] ... 6.18
CC(C)c1ccc([C@@H](NC(=O)[C@@H]2C[C@@H](F)CN2C(=O)C(C)n2ccnc2)c2ccccc2)cc1F (single isomer, unassigned) [Compound 768] ... 5.91
CC(C(=O)N1C[C@H](F)C[C@H]1C(=O)N[C@@H](c1ccccc1)c1ccc(C2(C)CC2)c(F)c1)n1cnc2ccccc21 (single isomer, unassigned) [Compound 574] ... 6.70

Now examine the next entry.
Data request: Could you please provide reported pIC50 for CCC(C)c1ccc(C(NC(=O)[C@@H]2C[C@@H](F)CN2C(=O)Cc2cnn[nH]2)c2ccccc2)cc1F (single isomer, unassigned) [Compound 676] ? Thanks!
Data returned: 4.85

---

biological target: hGYS2 enzyme (recombinant hGYS2/GN1 protein) (Homo sapiens (Human)); assay: GYS2 coupled enzyme assay (PK/LDH); format: biochemical; conditions: geometric mean of at least 2 assay runs on separate days, read-out: Avg_IC50
Sequence (P54840 whole entry): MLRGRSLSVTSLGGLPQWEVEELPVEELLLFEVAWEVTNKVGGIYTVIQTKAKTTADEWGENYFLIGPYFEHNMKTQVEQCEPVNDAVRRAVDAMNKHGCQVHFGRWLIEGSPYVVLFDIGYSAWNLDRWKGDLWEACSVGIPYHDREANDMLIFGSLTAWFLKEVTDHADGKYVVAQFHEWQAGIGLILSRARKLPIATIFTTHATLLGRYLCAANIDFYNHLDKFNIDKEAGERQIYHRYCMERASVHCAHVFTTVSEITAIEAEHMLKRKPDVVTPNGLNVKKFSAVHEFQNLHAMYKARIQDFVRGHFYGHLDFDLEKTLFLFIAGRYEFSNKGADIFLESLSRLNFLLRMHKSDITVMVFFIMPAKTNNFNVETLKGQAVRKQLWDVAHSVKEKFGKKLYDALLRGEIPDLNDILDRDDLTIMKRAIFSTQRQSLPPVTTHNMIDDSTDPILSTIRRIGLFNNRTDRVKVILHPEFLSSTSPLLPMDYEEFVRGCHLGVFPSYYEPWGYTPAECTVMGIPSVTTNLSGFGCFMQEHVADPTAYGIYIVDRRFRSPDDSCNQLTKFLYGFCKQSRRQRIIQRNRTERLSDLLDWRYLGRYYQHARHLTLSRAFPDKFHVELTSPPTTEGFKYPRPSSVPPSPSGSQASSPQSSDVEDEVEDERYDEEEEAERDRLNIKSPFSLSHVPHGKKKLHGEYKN
Sequence (P46976 whole entry partner): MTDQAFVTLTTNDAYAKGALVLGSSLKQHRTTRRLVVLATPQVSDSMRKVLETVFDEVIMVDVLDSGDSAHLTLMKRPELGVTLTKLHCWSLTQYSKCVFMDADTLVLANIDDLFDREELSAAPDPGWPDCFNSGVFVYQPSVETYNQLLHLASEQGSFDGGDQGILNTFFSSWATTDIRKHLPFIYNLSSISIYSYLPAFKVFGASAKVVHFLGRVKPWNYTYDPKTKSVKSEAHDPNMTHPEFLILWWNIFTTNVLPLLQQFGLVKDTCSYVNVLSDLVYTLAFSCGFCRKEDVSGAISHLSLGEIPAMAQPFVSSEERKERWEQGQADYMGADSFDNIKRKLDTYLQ
Measure Name: IC50

// below: answered molecules
Cc1cnc(CC(=O)N2C[C@H](F)C[C@H]2C(=O)N[C@@H](c2ccccc2)c2ccc(C3CC(F)(F)C3)c(F)n2)o1 [Compound 509] ... > 100 µM
CC(=O)N1C[C@H](F)C[C@H]1C(=O)N[C@@H](c1ccccc1)c1ccc(C(C)C)cc1 [Compound 207] ... > 100 µM
CC(C)c1ccc([C@@H](NC(=O)[C@@H]2C[C@@H](F)CN2C(=O)CCn2ccnn2)c2ccccc2)cc1 [Compound 11] ... > 100 µM
CC(C)c1ccc([C@@H](NC(=O)[C@@H]2C[C@@H](F)CN2C(=O)Cc2ccncn2)c2ccccc2)cc1F [Compound 346] ... > 100 µM
O=C(N[C@@H](c1ccccc1)c1ccc(C2CC2)c(F)c1)[C@@H]1C[C@@H](F)CN1C(=O)Cn1c(=O)[nH]c2ccccc21 [Compound 456] ... > 100 µM

Data request: Param request: IC50 | system hGYS2 enzyme (recombinant hGYS2/GN1 protein) (Homo sapiens (Human)) | item CC(C)c1ccc([C@@H](NC(=O)[C@@H]2C[C@@H](F)CN2C(=O)Cn2cccn2)c2ccccc2)nc1F [Compound 781]
Data returned: > 100 µM

Data request: Write down the reported IC50 (system: hGYS2 enzyme (recombinant hGYS2/GN1 protein) (Homo sapiens (Human))) of CC(C)c1ccc([C@@H](NC(=O)[C@@H]2C[C@@H](F)CN2C(=O)Cc2cnn[nH]2)c2ccccc2)nc1 [Compound 244]
Data returned: > 100 µM

---

// pIC50 lookup, one value per entry
target: hGYS1 enzyme (recombinant hGYS1/GN1 protein) (Homo sapiens (Human)); assay: GYS1 coupled enzyme assay (PK/LDH); conditions: hGYS1/GN1 50 nM, UDP-Glucose 0.8 mM, G6P 1 mM; geometric mean of at least 2 runs
Sequence (P13807 whole entry, one chain of several): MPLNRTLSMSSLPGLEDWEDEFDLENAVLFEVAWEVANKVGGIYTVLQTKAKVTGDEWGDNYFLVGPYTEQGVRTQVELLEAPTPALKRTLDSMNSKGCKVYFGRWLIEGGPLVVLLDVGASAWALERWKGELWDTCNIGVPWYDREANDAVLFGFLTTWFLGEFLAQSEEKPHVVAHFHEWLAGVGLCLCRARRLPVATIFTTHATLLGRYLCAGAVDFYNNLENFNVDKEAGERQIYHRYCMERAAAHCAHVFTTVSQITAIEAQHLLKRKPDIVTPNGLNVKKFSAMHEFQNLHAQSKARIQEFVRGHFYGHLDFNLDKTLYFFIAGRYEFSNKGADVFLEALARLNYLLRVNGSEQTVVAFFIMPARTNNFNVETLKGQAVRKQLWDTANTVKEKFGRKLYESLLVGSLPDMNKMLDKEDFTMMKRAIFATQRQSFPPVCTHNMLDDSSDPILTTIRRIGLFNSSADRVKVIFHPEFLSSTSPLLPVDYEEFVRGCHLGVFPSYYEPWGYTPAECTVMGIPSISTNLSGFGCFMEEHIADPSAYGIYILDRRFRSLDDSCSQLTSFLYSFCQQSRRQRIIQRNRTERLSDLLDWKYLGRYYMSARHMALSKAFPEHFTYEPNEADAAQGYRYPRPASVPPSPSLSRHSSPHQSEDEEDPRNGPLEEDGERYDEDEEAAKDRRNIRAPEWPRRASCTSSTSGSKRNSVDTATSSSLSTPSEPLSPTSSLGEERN
Quick note: pIC50 means taking -log10 of the concentration in moles per liter.

A selection of reference data follows.
COCCN1CCN(C(=O)OCC(=O)N2C[C@H](F)C[C@H]2C(=O)N[C@@H](c2ccccc2)c2ccc(C3(C)CC3)c(F)c2)CC1 ... 7.23
Cc1noc(CC(=O)N2C[C@H](F)C[C@H]2C(=O)N[C@@H](c2ccccc2)c2ccc(C(C)C)cc2)n1 ... 7.32
CN(C)c1cnn(CC(=O)N2C[C@H](F)C[C@H]2C(=O)N[C@@H](c2ccccc2)c2ccc(C3CC3)c(F)c2)n1 ... 7.31

Data request: System hGYS1 enzyme (recombinant hGYS1/GN1 protein) (Homo sapiens (Human)). Read-out pIC50. Item CC(C)c1ccc([C@@H](NC(=O)[C@@H]2C[C@@H](F)CN2C(=O)Cn2ncc(N3CCC3)n2)c2ccccc2)nc1F . Report value.
Data returned: 8.15

Data request: Provide pIC50, tested on hGYS1 enzyme (recombinant hGYS1/GN1 protein) (Homo sapiens (Human)), for CC(C)c1ccc([C@@H](NC(=O)[C@@H]2C[C@@H](F)CN2C(=O)C(O)c2cnn[nH]2)c2ccccc2)cc1F (single isomer, unassigned) [Compound 773] .
Data returned: 6.91

Data request: State, for hGYS1 enzyme (recombinant hGYS1/GN1 protein) (Homo sapiens (Human)), measured pIC50 of the compound listed here: O=C(N[C@@H](c1ccccc1)c1ccc(C2CC2)c(F)n1)[C@@H]1C[C@@H](F)CN1C(=O)Cn1nnnc1C(F)F
Data returned: 7.42
